Target: T1, full-length human GIPR with an N-terminal FLAG tag (human, UniProt P48546 22-466)
T1 sequence (looked up): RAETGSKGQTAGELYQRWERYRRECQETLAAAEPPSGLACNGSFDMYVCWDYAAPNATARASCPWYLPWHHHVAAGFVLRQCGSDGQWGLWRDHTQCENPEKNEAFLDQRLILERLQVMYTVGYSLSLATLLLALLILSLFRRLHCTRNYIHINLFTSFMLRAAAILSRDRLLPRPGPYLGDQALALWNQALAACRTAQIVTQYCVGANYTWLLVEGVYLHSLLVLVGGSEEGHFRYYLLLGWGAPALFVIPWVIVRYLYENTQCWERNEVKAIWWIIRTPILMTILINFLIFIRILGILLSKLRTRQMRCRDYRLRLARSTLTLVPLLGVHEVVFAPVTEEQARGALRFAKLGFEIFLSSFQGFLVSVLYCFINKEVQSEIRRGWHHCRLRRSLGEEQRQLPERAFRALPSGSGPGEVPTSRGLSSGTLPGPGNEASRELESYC
Experiment: cell-based or functional assay
Starred links: 1 amine or outer side, 2 acyl side, 3 side chain; linkers in the order of their positions; H or OH if unused. Non-standard residues stand in square brackets, D forms with d. Groups on a side chain read outwards from the residue. No end group written: not given here. *: point of attachment. C20 diacid = O=C(O)CCCCCCCCCCCCCCCCCCC(=O)*; C18 diacid = O=C(O)CCCCCCCCCCCCCCCCC(=O)*; C17 diacid = O=C(O)CCCCCCCCCCCCCCCC(=O)*; γGlu = O=C(O)[C@H](CCC(=O)[*:2])N[*:1]; NMeY = CN[C@@H](Cc1ccc(O)cc1)C(=O)O; AEEA = NCCOCCOCC(=O)O; Aib = CC(C)(N)C(=O)O
Measured Human GIPR cAMP EC50, HEK293T accompanies every entry in the list below.
Express your answer as a number followed by its unit.

BINDER: [NMeY][Aib]EGTFISDYSI[Aib]K([AEEA-AEEA-γGlu-γGlu-C17 diacid])DR[Aib]AQ[Aib]NFVNWLLAQSPSSGAPPPS-NH2 [Compound No. 29]
Human GIPR cAMP EC50, HEK293T: 0.4 pM

BINDER: Y[Aib]EGTFISDYSI[Aib]LDR[Aib]AQ[Aib]K([AEEA-AEEA-γGlu-γGlu-C18 diacid])FVNWLLAQRG-OH (not fully specified (N-terminus)) [Compound No. 141]
Human GIPR cAMP EC50, HEK293T: 0.5 pM

BINDER: [NMeY][Aib]EGTFISDYSIAK([G5-γGlu-γGlu-C18 diacid])DR[Aib]AQ[Aib]NFVNWLLAQRPSSGAPPPS-NH2 [Compound No. 34]
Human GIPR cAMP EC50, HEK293T: 0.4 pM

Supply measured Human GIPR cAMP EC50, HEK293T of [NMeY][Aib]EGTFISDYSIALDR[Aib]K([AEEA-AEEA-γGlu-γGlu-C20 diacid])Q[Aib]NFVNWLLAQSPSSGAPPPS-NH2 [Compound No. 99] in your reply. 0.5 pM

Assign Human GIPR cAMP EC50, HEK293T to the following record: [NMeY][Aib]EGTFISDYSI[Aib]LDR[Aib]K([AEEA-AEEA-γGlu-γGlu-C18 diacid])A[Aib]NFVNWLLAQSPSSGAPPPS-NH2 [Compound No. 109] 0.4 pM

# return recorded Human GIPR cAMP EC50, HEK293T for input [NMeY][Aib]EGTFISDYSI[Aib]LDR[Aib]AA[Aib]K([AEEA-AEEA-γGlu-γGlu-C18 diacid])FVNWLLAQSPSSGAPPPS-NH2 [Compound No. 107] 0.4 pM
